System: Cytosolic malic enzyme, rat liver
measurement description: Cytosolic malic enzyme activity in liver of steroid-fed rats (enzyme induction in rat liver by C19 steroids)
Format: in vivo, rat (male Sprague Dawley)
condition summary: 0.1 wt % steroid in diet, 6 days, rat liver cytosol
result type: Malic Enzyme (% control)

molecule: C[C@]12CC[C@H](O)CC1=CC(=O)[C@@H]1[C@@H]2CC[C@]2(C)C(=O)CC[C@@H]12
result type: Malic Enzyme (% control)
test value: 350 % control
//
molecule: C[C@]12CC[C@H](O)CC1=CC[C@@H]1[C@@H]2CC[C@]2(C)C(=O)CC[C@@H]12 [DHEA, Δ5-androstene 3β-hydroxy, 17-one, reference compound]
result type: Malic Enzyme (% control)
test value: 394 % control
//
molecule: CC1C=C2C[C@@H](O)CC[C@]2(C)[C@H]2CC[C@]3(C)C(=O)CC[C@H]3[C@H]12 (stereo partly drawn) [Δ5-Androstene-3β-ol-7-methyl-17-one, reference compound]
result type: Malic Enzyme (% control)
test value: 121 % control
//
molecule: C[C@]12CC[C@H]3[C@@H]([C@H](O)C=C4C[C@@H](O)CC[C@@]43CO)[C@@H]1CCC2=O [Δ5 Androstene 3β,7α,19-ol-17-one, reference compound]
result type: Malic Enzyme (% control)
test value: 118 % control
//
molecule: C[C@]12CC[C@H]3[C@@H]([C@H](O)C=C4C[C@@H](O)CC[C@@]43C)[C@@H]1CC[C@@H]2O
result type: Malic Enzyme (% control)
test value: 611 % control
